Molecular target: Neu5Ac(a2-6)Gal(b1-4)GlcNAc(b1-3)Gal(b1-4)GlcNAc(b1-3)Gal(b1-4)GlcNAc(b1-2)Man(a1-3)[Neu5Ac(a2-6)Gal(b1-4)GlcNAc(b1-3)Gal(b1-4)GlcNAc(b1-3)Gal(b1-4)GlcNAc(b1-2)Man(a1-6)]GalNAc
Assay: glycan array binding signal (z-score within array); higher = stronger binding
Settings: glycan notation: IUPAC condensed, linker removed
About 410 targets per protein were measured; listed, in parts, are those with the strongest signals and a random draw of the rest.
Label rule not met if glycan array binding signal (z-score) falls below 4; label rule met in every other case.

BINDER	CLASS ASSIGNMENT
CFEM-CGl (Candida glabrata), Q6FRS0 (protein) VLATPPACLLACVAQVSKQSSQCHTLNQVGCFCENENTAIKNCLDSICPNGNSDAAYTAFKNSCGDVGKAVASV	rule met
RbmA (Vibrio cholerae), A0A2H4NFB8 (protein) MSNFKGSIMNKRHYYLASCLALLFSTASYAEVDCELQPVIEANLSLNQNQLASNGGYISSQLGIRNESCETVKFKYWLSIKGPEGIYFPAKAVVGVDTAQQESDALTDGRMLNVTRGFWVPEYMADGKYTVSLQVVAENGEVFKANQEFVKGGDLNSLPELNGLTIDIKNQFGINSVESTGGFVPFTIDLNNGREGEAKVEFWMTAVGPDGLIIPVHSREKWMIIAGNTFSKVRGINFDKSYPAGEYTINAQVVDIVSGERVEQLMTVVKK	rule not met
Epa21 (Candida glabrata) (protein) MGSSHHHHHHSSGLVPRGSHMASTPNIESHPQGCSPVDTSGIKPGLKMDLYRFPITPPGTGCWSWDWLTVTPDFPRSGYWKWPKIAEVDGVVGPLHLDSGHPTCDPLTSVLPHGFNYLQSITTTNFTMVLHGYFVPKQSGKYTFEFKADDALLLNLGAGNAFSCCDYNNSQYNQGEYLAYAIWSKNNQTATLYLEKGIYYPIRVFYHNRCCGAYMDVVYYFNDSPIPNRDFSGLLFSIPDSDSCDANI	rule met

Please turn your attention to the following entry.
Threshold query (glycan array binding signal (z-score) >= 4) on Pwp5 ND (Candida glabrata) (protein) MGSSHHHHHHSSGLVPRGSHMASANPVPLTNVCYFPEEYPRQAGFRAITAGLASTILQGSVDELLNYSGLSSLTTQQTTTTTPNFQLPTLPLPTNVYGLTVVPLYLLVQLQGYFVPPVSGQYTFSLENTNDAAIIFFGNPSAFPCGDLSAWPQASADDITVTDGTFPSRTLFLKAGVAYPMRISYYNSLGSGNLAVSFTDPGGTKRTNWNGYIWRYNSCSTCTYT
rule not met
